- Format: in vitro ADME, human
Peptide text beside a SMILES is read from it. * marks the point of attachment. DOTA = O=C(O)CN1CCN(CC(=O)O)CCN(CC(=O)*)CCN(CC(=O)O)CC1
Each entry below lists one item and its recorded time to complete degradation in human plasma value.

1) CC(C)C[C@@H](N)C(=O)N[C@@H](CC(C)C)C(=O)N[C@@H](CCCNC(=N)N)C(=O)N[C@@H](Cc1c[nH]c2ccccc12)C(=O)N[C@@H](CO)C(=O)N[C@@H](CCCNC(=N)N)C(=O)N[C@@H](CCCCN)C(=O)N[C@@H](CC(C)C)C(=O)N1CCC[C@H]1C(=O)N[C@@H](CS)C(=O)N[C@H](C(=O)N[C@@H](CO)C(=O)N[C@@H](CCCCNC(=O)CN1CCN(CC(=O)O)CCN(CC(=O)O)CCN(CC(=O)O)CC1)C(=O)O)C(C)C [^177Lu-6, metal not drawn] : ≤ 15 min
2) CC[C@H](C)[C@H](N)C(=O)N[C@@H](CC(C)C)C(=O)N[C@@H](CCCNC(=N)N)C(=O)N[C@@H](Cc1c[nH]c2ccccc12)C(=O)N[C@@H](CO)C(=O)N[C@@H](CCCNC(=N)N)C(=O)N[C@@H](CCCCNC(=O)CN1CCN(CC(=O)O)CCN(CC(=O)O)CCN(CC(=O)O)CC1)C(N)=O [^177Lu-5, metal not drawn] (H-ILRWSRK(DOTA)-NH2; N-terminus assumed) : ≤ 15 min
3) CC[C@H](C)[C@H](N)C(=O)N[C@@H](CC(C)C)C(=O)N[C@@H](CCCNC(=N)N)C(=O)N[C@@H](Cc1c[nH]c2ccccc12)C(=O)N[C@@H](CO)C(=O)N[C@@H](CCCNC(=N)N)C(=O)N[C@@H](CCCCN)C(=O)N[C@@H](CC(C)C)C(=O)N1CCC[C@H]1C(=O)N[C@@H](CO)C(=O)N[C@H](C(=O)N[C@@H](CO)C(=O)N[C@@H](CCCCNC(=O)CN1CCN(CC(=O)O)CCN(CC(=O)O)CCN(CC(=O)O)CC1)C(=O)O)C(C)C [^177Lu-2, metal not drawn] (H-ILRWSRKLPSVSK(DOTA)-OH; N-terminus and C-terminus assumed) : 60 min

Input: Tell me time to complete degradation in human plasma reported for CC[C@H](C)[C@H](N)C(=O)N[C@@H](CC(C)C)C(=O)N[C@@H](CCCNC(=N)N)C(=O)N[C@@H](Cc1c[nH]c2ccccc12)C(=O)N[C@@H](CO)C(=O)N[C@@H](CCCNC(=N)N)C(=O)N[C@@H](CCCCN)C(=O)N[C@@H](CC(C)C)C(=O)N1CCC[C@H]1C(=O)N[C@@H](CS)C(=O)N[C@H](C(=O)N[C@@H](CO)C(=O)N[C@@H](CCCCNC(=O)CN1CCN(CC(=O)O)CCN(CC(=O)O)CCN(CC(=O)O)CC1)C(=O)O)C(C)C [^177Lu-1, metal not drawn]
Output: ≤ 15 min

Reference for the values: paper PMC10350915
